system: A longipes (Alternaria lonaives CBS62083); test: Antifungal activity assay (microspectrophotometry), A longipes; format: cell-based; settings: Medium B (1/2 PDB + 1 mM CaCl2 and 50 mM KCl), 48 h
Consider the following substances; for each one, report its IC50 (growth inhibition) A longipes.
Number in µg/mL, nothing else.

State, in one line, measured IC50 (growth inhibition) A longipes of Ib-AMP1: Impatiens balsamina antimicrobial protein 1, purified from I balsamina seeds; amino acid sequence SEQ ID NO 10 (QWGRRCCGWGPGRRYCVRWC)
50

State, in one line, measured IC50 (growth inhibition) A longipes of Ib-AMP4: Impatiens balsamina antimicrobial protein 4, purified from I balsamina seeds; amino acid sequence SEQ ID NO 13 (QWGRRCCGWGPGRRYCRRWC)
12

Data credit: patent US5861480A
